biological target: A/PR8-S331R virus NA (Influenza A virus (H3N2), UniProt A0A193ACB1, S331R); type: biochemical; conditions: read-out: NA enzyme inhibition assay (mean IC50 ± SD)
ASSAY_ENDPOINT: pIC50
Hey, just a heads up that pIC50 is the negative log base 10 of the concentration in molar.

**Query** What does the data say about its pIC50? Entry: CCC(CC)[C@H](NC(C)=O)[C@@H]1[C@H](O)[C@@H](C(=O)O)C[C@H]1N=C(N)N [Peramivir, peramivir]
**Result** 9.70
